The reported numbers originate from patent US9414590B2.

# Test system: quagga mussels
# procedure text: whole plant or invertebrate
# experimental setup: Dreissena rostriformis, 72 h, read-out: Molluscicidal effect (mortality) 72 hr
result type: mortality at 11.1 µg/mL (%)

INSERT INTO measurements (compound, endpoint_unit, result_number) VALUES
  ('O=C1CCC(c2ccccc2)O1 (stereo not shown)', '%', 0),
  ('CCCCCC1CCC(=O)O1 (stereo not shown)', '%', 0),
  ('CCCCCCC1CCC(=O)O1 (stereo not shown)', '%', 0),
  ('CCCCCCCCCC1CCCC(=O)O1 (stereo not shown)', '%', 0),
  ('CCCCCCCC1CCOC1=O (stereo not shown)', '%', 73.3),
  ('CCCCCCCCC1CCC(=O)O1 (stereo not shown)', '%', 96.7),
  ('CCCCCCCCC1CCCC(=O)O1 (stereo not shown)', '%', 10),
  ('CCCCCCCCC(O)CCC(=O)O (stereo not shown)', '%', 0),
  ('CCCC1CCC(=O)O1 (stereo not shown)', '%', 0),
  ('CCCCCCCCCCCC(=O)O', '%', 0);

---

# Tested on: quagga mussels
# procedure text: whole plant or invertebrate
# experimental setup: Dreissena rostriformis, 48 h, read-out: Molluscicidal effect (mortality) 48 hr
Parameter: mortality at 11.1 µg/mL. Scope: all listed entries.
result type: mortality at 11.1 µg/mL (%)

INSERT INTO results (compound, result_type, result_number) VALUES
  ('CCCCCC1CCC(=O)O1 (stereo not drawn) [SAR-008]', 'mortality at 11.1 µg/mL', 0),
  ('CCCCCCCCC1CCC(=O)O1 (stereo not drawn) [SAR-001]', 'mortality at 11.1 µg/mL', 96.7),
  ('CCCCCCCCC1CCCC(=O)O1 (stereo not drawn) [SAR-003]', 'mortality at 11.1 µg/mL', 10);
